Test system: human GPR40 (Homo sapiens, UniProt O14842)
Sequence (O14842 whole entry): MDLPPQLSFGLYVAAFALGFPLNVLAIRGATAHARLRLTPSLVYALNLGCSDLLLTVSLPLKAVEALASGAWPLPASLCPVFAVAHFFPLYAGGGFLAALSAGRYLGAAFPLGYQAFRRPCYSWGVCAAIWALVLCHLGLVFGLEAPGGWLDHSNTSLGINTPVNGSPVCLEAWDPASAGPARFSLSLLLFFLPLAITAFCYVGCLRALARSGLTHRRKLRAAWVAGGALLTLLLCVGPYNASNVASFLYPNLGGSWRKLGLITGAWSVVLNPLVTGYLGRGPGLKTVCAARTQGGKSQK
Protocol details: Calcium flux (FLIPR, Fluo-8) agonist assay in CHO cells stably expressing human GPR40
Assay type: cell-based
Test parameters: Table 2, compounds investigated in this work; read-out: FFA1 EC50
pEC50: −log10 of the molar value.

Compound	pEC50
Cl.Cl.O=C(O)CCc1ccc(OCc2ccc(CN3CCC4(CC3)CC(Oc3ccccn3)CCO4)cc2)cc1 (stereo not shown)	6.05

###

Test system: human GPR40 (Homo sapiens, UniProt O14842)
Protocol details: Calcium flux (FLIPR, Fluo-8) agonist assay in CHO cells stably expressing human GPR40
Type: cell-based
Test parameters: 5 μM; relative to GPR40 activation by 20 μM of GW9509, n = 2

Compound	Value unit	% FFA1 activation at 5 μM
Cl.Cl.O=C(O)CCc1ccc(OCc2ccc(CN3CCC4(CC3)CC(CC(=O)NCc3cccnc3)CCO4)cc2)cc1 (stereo not drawn) [Compound 4i]	%	11.6
CNC(=O)CC1CCOC2(CCN(Cc3ccc(COc4ccc(CCC(=O)O)cc4)cc3)CC2)C1.Cl (stereo not drawn) [Compound 4g]	%	9.9
Cl.Cl.O=C(O)CCc1ccc(OCc2ccc(CN3CCC4(CC3)CC(N3CCCC3)CCO4)cc2)cc1 (stereo not drawn) [Compound 4e]	%	9.1
